Target: Carbonic anhydrase 1 (Homo sapiens)
Sequence (P00915 whole entry): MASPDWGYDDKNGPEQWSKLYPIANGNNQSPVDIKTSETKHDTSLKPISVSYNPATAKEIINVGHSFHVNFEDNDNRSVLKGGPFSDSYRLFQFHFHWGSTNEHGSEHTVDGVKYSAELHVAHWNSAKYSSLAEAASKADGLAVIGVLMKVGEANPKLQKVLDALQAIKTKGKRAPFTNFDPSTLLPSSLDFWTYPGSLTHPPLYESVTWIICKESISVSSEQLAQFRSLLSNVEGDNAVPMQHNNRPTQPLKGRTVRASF
READOUT LABEL: Ki (nM)
Lab book: enter the figure in nM, no units written.

Please tell me: Ki of `NS(=O)(=O)c1nnc(NC(=O)N[C@]23C[C@H]4C[C@H](C[C@H](C4)C2)C3)s1` , system Carbonic anhydrase 1 (Homo sapiens)?
810

# get_value(readout= Ki, system= Carbonic anhydrase 1 (Homo sapiens)) for `CC1(C)O[C@@H]2[C@@H](CC[C@@]3(COS(N)(=O)=O)OC(C)(C)O[C@@H]23)O1`
250

Record lookup: for Carbonic anhydrase 1 (Homo sapiens), what Ki belongs to `NS(=O)(=O)c1nnc(NC(=O)[C@]23C[C@H]4C[C@H](C[C@H](C4)C2)C3)s1` ?
850

Cited source for all entries: BindingDB's records for doi:10.1111/j.1747-0285.2009.00857.x
